Where these numbers come from: PubChem BioAssay (NCI)

# Tested on: U251 CNS
# EXPERIMENT DESCRIPTION: NCI tumour cell line growth inhibition, 48 h
Task for the reader: assign each of the following molecules its reported TGI.

Record summary for O=C(/C=C/c1ccc(O)c(O)c1)NC(CO)C(=O)O (stereo unspecified) : reported TGI = > 100 µM

Record summary for CCc1ccccc1NC(=O)CCc1nc(=S)[nH][nH]1 : reported TGI = > 100 µM

Record summary for CC(C)(C)Cn1c(N)nc2ccc(-c3[nH]c(C(C)(C)C)nc3-c3ccc(F)cc3)nc21 : reported TGI = 25.2 µM

Record summary for O=C(CNC(=O)OCc1ccccc1)NCCCCC(NC(=O)OCc1ccccc1)C(=O)O (stereo unspecified) : reported TGI = > 100 µM

Record summary for C1=CCN(c2ccccc2)CC1 : reported TGI = > 100 µM

Record summary for O=C(Nc1ccccc1)N1CCNC1=S : reported TGI = > 100 µM

###

# Test system: TK-10 renal
# EXPERIMENT DESCRIPTION: NCI tumour cell line growth inhibition, 48 h
Task for the reader: assign each of the following molecules its reported TGI.

Record summary for O=C1C(NCCO)=C(N2CC2)C(=O)C(NCCO)=C1N1CC1 : reported TGI = > 100 µM

Record summary for CCCCCCCCCCCCCCCC(=O)NC1CCc2cc(O)c(O)c(O)c2-c2ccc(SC)c(=O)cc21 (stereo not drawn) : reported TGI = 30.2 µM

Record summary for COC(=O)C1=CN(CC2=CC(=O)C(C)=CC2=O)C=C(C(=O)OC)C1c1cccc(OC)c1OC : reported TGI = 27.1 µM

Record summary for CC(=O)Nc1ccc(-c2nnc(SCC(=O)Nc3ccccc3Cl)o2)cc1 : reported TGI = > 100 µM

Record summary for O=c1c2cc(Br)ccc2oc2ccc(Br)cc12 : reported TGI = > 100 µM

Record summary for CC1C(=O)N=C2C(=CN(Cc3ccccc3)c3ccccc32)C(=O)N1C (stereo not drawn) : reported TGI = > 100 µM

Record summary for Cn1c(=O)nc2n(CCO)c(-c3ccccc3)c(-c3ccccc3)nc-2c1=O : reported TGI = > 100 µM

Record summary for COC(=O)n1c(=O)nc2c3c(ncn21)Oc1c(c(-c2ccccc2)nn1-c1ccccc1)C3c1ccc(Cl)cc1 (stereo not drawn) : reported TGI = 3.37 µM

Record summary for COc1ccc(/C=C/C(=O)c2ccc(Nc3ncnc4ccccc34)cc2)cc1OC : reported TGI = 62.9 µM

Record summary for CCOC(=O)[C@H]1C[C@@H](C(=O)c2ccccc2)N2N=C(c3ccc(Br)cc3)C=C[C@H]12 : reported TGI = > 100 µM

Record summary for CN(CCO)CC(=O)CC(O)(C(F)(F)F)C(F)(F)F : reported TGI = > 100 µM

Record summary for COc1ccc2c(c1)[nH]c(=O)c1c3cccnc3cn21 : reported TGI = 18.8 µM

Record summary for CC(=O)OCC(OC(C)=O)C(OC(C)=O)C(/C=N/N(C(C)=O)S(=O)(=O)c1ccc(/C=C2\NC(=O)NC2=O)cc1)OC(C)=O (stereo not drawn) : reported TGI = > 100 µM

Record summary for COc1c(O)cc(/C=C/c2cc(O)cc3c2[C@@]2(C(=O)O3)c3c(O)cc(O)cc3OC2c2cccc(O)c2)cc1O (stereo partly drawn) : reported TGI = > 100 µM

Record summary for Clc1ccc(C2=Nc3ccccc3SC(c3ccc(Cl)c(Cl)c3)C2)c(Cl)c1 (stereo not drawn) : reported TGI = 36.9 µM

Record summary for O=C(O)C(/C=C/c1ccco1)=N\Nc1nc(-c2ccc(Cl)cc2)cs1 : reported TGI = > 50 µM

Record summary for CCc1ccccc1NC(=O)CCc1nc(=S)[nH][nH]1 : reported TGI = > 100 µM

Record summary for O=C(Oc1ccccc1)c1cc(O)c(O)c(O)c1 : reported TGI = > 100 µM
